B1: EHEE_rd2_0196 (parent)
chain: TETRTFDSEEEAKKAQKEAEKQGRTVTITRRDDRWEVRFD

# Variants of: B1
# TEST_NAME: folding stability dG (cDNA display proteolysis); higher = more stable
# TEST_CONTEXT: PBS, room temperature
Please use Yes whenever folding stability dG is not below 3 kcal/mol, and No whenever it is.

MUTATION_LABEL	GROUP
V26I	No
A15H	No
D7F	Yes
Q22C	Yes

Each recorded value in this set is attributed to the MegaScale stability set (Tsuboyama et al. 2023).
